These entries and their values trace back to the OligoGym collection.

Molecular target: UBE2N
Assay: reporter assay of Huesken 2005
Conditions: siRNA
Oligonucleotides are given in HELM: sugar(base)linkage, 5' to 3'; d 2'-deoxyribose, r ribose, m 2'-O-methylribose, p phosphate. ss, as = sense and antisense strand
Binary classification by normalised inhibition (eCFP-eYFP dual reporter), with 50% as an inclusive lower bound for 1; all other cases are 0.

[
  {
    "Substance": "RNA1{r(U)p.r(U)p.r(U)p.r(U)p.r(G)p.r(A)p.r(A)p.r(A)p.r(G)p.r(A)p.r(U)p.r(A)p.r(A)p.r(G)p.r(U)p.r(G)p.r(G)p.r(U)p.r(C)p.d(T)p.d(T)}|RNA2{r(G)p.r(A)p.r(C)p.r(C)p.r(A)p.r(C)p.r(U)p.r(U)p.r(A)p.r(U)p.r(C)p.r(U)p.r(U)p.r(U)p.r(C)p.r(A)p.r(A)p.r(A)p.r(A)p.d(T)p.d(A)}$$$RNA1{StrandType:ss}|RNA2{StrandType:as}$",
    "Label": 0
  },
  {
    "Substance": "RNA1{r(A)p.r(A)p.r(G)p.r(C)p.r(C)p.r(C)p.r(A)p.r(A)p.r(G)p.r(C)p.r(C)p.r(A)p.r(U)p.r(A)p.r(G)p.r(A)p.r(A)p.r(A)p.r(C)p.d(T)p.d(T)}|RNA2{r(G)p.r(U)p.r(U)p.r(U)p.r(C)p.r(U)p.r(A)p.r(U)p.r(G)p.r(G)p.r(C)p.r(U)p.r(U)p.r(G)p.r(G)p.r(G)p.r(C)p.r(U)p.r(U)p.d(C)p.d(G)}$$$RNA1{StrandType:ss}|RNA2{StrandType:as}$",
    "Label": 1
  },
  {
    "Substance": "RNA1{r(G)p.r(A)p.r(A)p.r(G)p.r(C)p.r(C)p.r(C)p.r(A)p.r(A)p.r(G)p.r(C)p.r(C)p.r(A)p.r(U)p.r(A)p.r(G)p.r(A)p.r(A)p.r(A)p.d(T)p.d(T)}|RNA2{r(U)p.r(U)p.r(U)p.r(C)p.r(U)p.r(A)p.r(U)p.r(G)p.r(G)p.r(C)p.r(U)p.r(U)p.r(G)p.r(G)p.r(G)p.r(C)p.r(U)p.r(U)p.r(C)p.d(G)p.d(T)}$$$RNA1{StrandType:ss}|RNA2{StrandType:as}$",
    "Label": 1
  },
  {
    "Substance": "RNA1{r(G)p.r(A)p.r(A)p.r(C)p.r(C)p.r(A)p.r(G)p.r(U)p.r(U)p.r(C)p.r(C)p.r(U)p.r(G)p.r(G)p.r(C)p.r(A)p.r(U)p.r(C)p.r(A)p.d(T)p.d(T)}|RNA2{r(U)p.r(G)p.r(A)p.r(U)p.r(G)p.r(C)p.r(C)p.r(A)p.r(G)p.r(G)p.r(A)p.r(A)p.r(C)p.r(U)p.r(G)p.r(G)p.r(U)p.r(U)p.r(C)p.d(T)p.d(G)}$$$RNA1{StrandType:ss}|RNA2{StrandType:as}$",
    "Label": 0
  },
  {
    "Substance": "RNA1{r(A)p.r(A)p.r(G)p.r(U)p.r(G)p.r(G)p.r(U)p.r(C)p.r(C)p.r(C)p.r(C)p.r(A)p.r(G)p.r(C)p.r(A)p.r(C)p.r(U)p.r(G)p.r(C)p.d(T)p.d(T)}|RNA2{r(G)p.r(C)p.r(A)p.r(G)p.r(U)p.r(G)p.r(C)p.r(U)p.r(G)p.r(G)p.r(G)p.r(G)p.r(A)p.r(C)p.r(C)p.r(A)p.r(C)p.r(U)p.r(U)p.d(A)p.d(T)}$$$RNA1{StrandType:ss}|RNA2{StrandType:as}$",
    "Label": 0
  },
  {
    "Substance": "RNA1{r(A)p.r(C)p.r(G)p.r(A)p.r(A)p.r(G)p.r(C)p.r(C)p.r(C)p.r(A)p.r(A)p.r(G)p.r(C)p.r(C)p.r(A)p.r(U)p.r(A)p.r(G)p.r(A)p.d(T)p.d(T)}|RNA2{r(U)p.r(C)p.r(U)p.r(A)p.r(U)p.r(G)p.r(G)p.r(C)p.r(U)p.r(U)p.r(G)p.r(G)p.r(G)p.r(C)p.r(U)p.r(U)p.r(C)p.r(G)p.r(U)p.d(T)p.d(G)}$$$RNA1{StrandType:ss}|RNA2{StrandType:as}$",
    "Label": 1
  },
  {
    "Substance": "RNA1{r(U)p.r(G)p.r(A)p.r(A)p.r(A)p.r(G)p.r(A)p.r(U)p.r(A)p.r(A)p.r(G)p.r(U)p.r(G)p.r(G)p.r(U)p.r(C)p.r(C)p.r(C)p.r(C)p.d(T)p.d(T)}|RNA2{r(G)p.r(G)p.r(G)p.r(G)p.r(A)p.r(C)p.r(C)p.r(A)p.r(C)p.r(U)p.r(U)p.r(A)p.r(U)p.r(C)p.r(U)p.r(U)p.r(U)p.r(C)p.r(A)p.d(A)p.d(A)}$$$RNA1{StrandType:ss}|RNA2{StrandType:as}$",
    "Label": 0
  },
  {
    "Substance": "RNA1{r(C)p.r(U)p.r(U)p.r(G)p.r(A)p.r(A)p.r(C)p.r(U)p.r(A)p.r(U)p.r(U)p.r(C)p.r(C)p.r(U)p.r(U)p.r(C)p.r(C)p.r(A)p.r(G)p.d(T)p.d(T)}|RNA2{r(C)p.r(U)p.r(G)p.r(G)p.r(A)p.r(A)p.r(G)p.r(G)p.r(A)p.r(A)p.r(U)p.r(A)p.r(G)p.r(U)p.r(U)p.r(C)p.r(A)p.r(A)p.r(G)p.d(T)p.d(T)}$$$RNA1{StrandType:ss}|RNA2{StrandType:as}$",
    "Label": 1
  },
  {
    "Substance": "RNA1{r(C)p.r(A)p.r(A)p.r(C)p.r(G)p.r(C)p.r(C)p.r(C)p.r(G)p.r(U)p.r(U)p.r(A)p.r(U)p.r(U)p.r(U)p.r(U)p.r(C)p.r(A)p.r(U)p.d(T)p.d(T)}|RNA2{r(A)p.r(U)p.r(G)p.r(A)p.r(A)p.r(A)p.r(A)p.r(U)p.r(A)p.r(A)p.r(C)p.r(G)p.r(G)p.r(G)p.r(C)p.r(G)p.r(U)p.r(U)p.r(G)p.d(C)p.d(T)}$$$RNA1{StrandType:ss}|RNA2{StrandType:as}$",
    "Label": 1
  },
  {
    "Substance": "RNA1{r(C)p.r(A)p.r(U)p.r(C)p.r(A)p.r(A)p.r(A)p.r(G)p.r(C)p.r(C)p.r(G)p.r(A)p.r(A)p.r(C)p.r(C)p.r(A)p.r(G)p.r(A)p.r(U)p.d(T)p.d(T)}|RNA2{r(A)p.r(U)p.r(C)p.r(U)p.r(G)p.r(G)p.r(U)p.r(U)p.r(C)p.r(G)p.r(G)p.r(C)p.r(U)p.r(U)p.r(U)p.r(G)p.r(A)p.r(U)p.r(G)p.d(C)p.d(C)}$$$RNA1{StrandType:ss}|RNA2{StrandType:as}$",
    "Label": 1
  }
]
